system: NCI-H226 lung; assay: NCI tumour cell line growth inhibition, 48 h
# reported TGI; entries follow

Study these solved cases before continuing.
[[record]]
compound = "NC(=O)c1cc2ccccc2oc1=Nc1ccccc1"
measurement_type = "TGI"
meas_value = "> 100 µM"

[[record]]
compound = "NC1CC(=O)c2cc(Cl)sc21 (stereo unspecified)"
measurement_type = "TGI"
meas_value = "> 100 µM"

[[record]]
compound = "COc1ccc2c(c1)CC[C@@H]1[C@@H]2CC[C@]2(C)C(=O)C3(CCCCC3)C[C@@H]12"
measurement_type = "TGI"
meas_value = "> 100 µM"


**Q:** Query: TGI; subject: `NC(=O)[C@H]1CCN(c2ncnc(N)c2F)C[C@@H]1N1CCC[C@@H](Nc2cc(Cl)cc(C(F)(F)F)c2)C1=O`
**A:** 70 µM

**Q:** Query: TGI; subject: O=C(CC1Sc2ccccc2NC1=O)Nc1cc(Cl)ccc1Cl (stereo unspecified)
**A:** > 100 µM

**Q:** Query: TGI; subject: `O=c1n(/N=C/c2ccccc2)c(=O)n2n1C1C=CC2CC1`
**A:** > 100 µM

**Q:** Query: TGI; subject: `COc1ccc(C(=O)/C=C/c2ccc(Cl)cc2)cc1S(=O)(=O)Nc1c(N)nc(SC)[nH]c1=O`
**A:** 8.36 µM

**Q:** Query: TGI; subject: `CSc1nnc(CCSc2ccnc3c(C(F)(F)F)cccc23)o1`
**A:** > 100 µM

**Q:** Query: TGI; subject: `N#Cc1ncc(/N=C/c2ccc(N(CCCl)CCCl)cc2)s1`
**A:** 7.71 µM

**Q:** Query: TGI; subject: `O=C(O)c1c[nH]c2c(Sc3ccccc3)nccc2c1=O`
**A:** > 100 µM

**Q:** Query: TGI; subject: CC(C)=CCCC1(C)C=Cc2c(c(C)cc3c2[nH]c2cc(O)ccc23)O1 (stereo unspecified)
**A:** > 25 µM

**Q:** Query: TGI; subject: `O=C(O)CS(=O)(=O)C(c1ccccc1)c1ccccc1`
**A:** > 100 µM

###

system: SK-OV-3 ovarian; test: NCI tumour cell line growth inhibition, 48 h
# reported TGI; entries follow
Give the value, in units of µM, as a plain number.

[[record]]
molecule = "COc1cc2cc(Oc3ccc(NC(=O)Nc4ccc(Cl)c(C(F)(F)F)c4)cc3)c(C)nc2cc1OCCN1CCCCC1"
meas_value = 3.93

[[record]]
molecule = "COc1ccccc1[N-]C(C1=C([O-])c2ccccc2C1=O)c1ccccc1.COc1ccccc1[N-]C(C1=C([O-])c2ccccc2C1=O)c1ccccc1.[Cu+2] (centres undefined)"
meas_value = 6.57

[[record]]
molecule = "O=C(NCCCCCCNC(=O)c1cccc2ccccc12)c1cccc2ccccc12"
meas_value = 56.9

[[record]]
molecule = "CCC[CH2][Sn]([CH2]CCC)([O]C(C)=O)[O]C(C)=O"
meas_value = 3.95

[[record]]
molecule = "CCCN1C(=O)/C(=c2\\sc3n(c2=O)C2C(NN=3)N(CC)C(=O)N2CC)c2ccccc21 (centres undefined)"
meas_value = 14.9


# next molecule below
**Q:** Query: TGI; subject: `Cc1c2ccncc2cc2c1sc1ccncc12`
**A:** 29

###

system: NCI-H23 lung; experiment: NCI tumour cell line growth inhibition, 48 h; in the data active = GI50 below about 0.43 µM; inactive = the rest
Can you answer with just one of these options? True = active, False = inactive

Solved entries:
[[record]]
compound = "CCn1c(-c2nonc2N)nc2cncc(C(=O)N3CCNCC3)c21"
system_under_test = "NCI-H23 lung"
label_class = "False"

[[record]]
compound = "CCN1C(=O)N(CC)C2C1NN=c1s/c(=C3\\C(=O)N(C(C)C)c4ccccc43)c(=O)n12 (stereo not drawn)"
system_under_test = "NCI-H23 lung"
label_class = "True"

[[record]]
compound = "c1ccc2nc(Cn3c[n+](Cc4ccc5ccccc5n4)c4ccccc43)ccc2c1"
system_under_test = "NCI-H23 lung"
label_class = "False"

[[record]]
compound = "CN(C)CCCNC(=O)c1cc(NC(=O)CCNS(=O)(=O)c2ccc3c(c2)C(=O)c2ccccc2C3=O)cn1C"
system_under_test = "NCI-H23 lung"
label_class = "False"

[[record]]
compound = "Cc1cc(N2CCCCC2)nc(N(CCNc2ccnc3cc(Cl)ccc23)Cc2ccco2)n1"
system_under_test = "NCI-H23 lung"
label_class = "False"

[[record]]
compound = "C=C(C)[C@@H]1CC[C@]2(C(=O)NCCCN)CC[C@]3(C)[C@H](CC[C@@H]4[C@@]5(C)CC[C@H](O)C(C)(C)[C@@H]5CC[C@]43C)[C@@H]12"
system_under_test = "NCI-H23 lung"
label_class = "False"

[[record]]
compound = "COc1cccc(C2=C(c3cn(C)c4ccccc34)C(=O)NC2=O)c1"
system_under_test = "NCI-H23 lung"
label_class = "False"

[[record]]
compound = "N#CC(C#N)=CN1CCN(C(=O)c2ccco2)C1=S"
system_under_test = "NCI-H23 lung"
label_class = "False"

[[record]]
compound = "O=C(CCN1CCCC1)Nc1ccc2c(NCc3ccc(F)cc3)c3ccccc3nc2c1"
system_under_test = "NCI-H23 lung"
label_class = "True"

[[record]]
compound = "N#CSc1ncnc2nc[nH]c12"
system_under_test = "NCI-H23 lung"
label_class = "False"


**Q:** Record request — test call for `C=C(C)[C@@H]1CC=C(CO)CC1`
**A:** False

**Q:** Record request — test call for `COc1ccc2c(c1)CC[C@@H]1[C@@H]2CC[C@]2(C)C(=O)C3(CCCCC3)C[C@@H]12`
**A:** False

###

test system: SW-620 colon; assay: NCI tumour cell line growth inhibition, 48 h
# reported TGI; entries follow

Study these solved cases before continuing.
[[record]]
compound = "Cc1nn2c(=O)c([N+](=O)[O-])c(/C=C/c3ccccc3)nc2s1"
system_under_test = "SW-620 colon"
meas_value = "> 51.4 µM"

[[record]]
compound = "CC1C2CC(CC(=O)N2)C1(C)C (stereo unspecified)"
system_under_test = "SW-620 colon"
meas_value = "> 100 µM"

[[record]]
compound = "COc1ccc(Br)c2c1CC(C(=O)O)CC2 (stereo unspecified)"
system_under_test = "SW-620 colon"
meas_value = "> 100 µM"

[[record]]
compound = "N#CC1(C#N)C2CCCCC23OC(=N)C1(C#N)C(c1ccco1)O3 (stereo unspecified)"
system_under_test = "SW-620 colon"
meas_value = "52.3 µM"

[[record]]
compound = "O=c1cc(CNc2cc(F)cc(F)c2)c2ccc(I)cc2[nH]1"
system_under_test = "SW-620 colon"
meas_value = "> 100 µM"


**Q:** Query: TGI; subject: `Cn1nc(Cc2ccc(Cl)cc2)n(N)c1=O`
**A:** > 100 µM

**Q:** Query: TGI; subject: `NC(=S)NNC(=O)/C(=C/c1ccc(/C=C(\NC(=O)c2ccccc2)C(=O)NNC(N)=S)cc1)NC(=O)c1ccccc1`
**A:** > 100 µM

**Q:** Query: TGI; subject: `Oc1ccccc1/C=N/Nc1nnc2c3ccccc3c3ccccc3c2n1`
**A:** > 100 µM

###

test system: A498 renal; assay: NCI tumour cell line growth inhibition, 48 h
# reported log10(TGI); entries follow
Give log10 of TGI, with TGI taken in µM.

Study these solved cases before continuing.
[[record]]
compound = "CC1Oc2cc3c(-c4c(O)cc(O)c5c(O)c6c(cc45)OC(C)C(C)C6=O)c(O)cc(O)c3c(O)c2C(=O)C1C (configuration not stated)"
meas_value = -0.11

[[record]]
compound = "O=C(NCCCCCCNC(=O)c1cccc2ccccc12)c1cccc2ccccc12"
meas_value = 1.82

[[record]]
compound = "c1ccc2nc(Cn3c[n+](Cc4ccc5ccccc5n4)c4ccccc43)ccc2c1"
meas_value = 1.01

[[record]]
compound = "Fc1cc(C2=C[C@H](c3ccc(Cl)cc3)NC(=S)N2)c(Cl)cc1Cl"
meas_value = 1.95

[[record]]
compound = "CC12CCC(=O)C=C1CCC1C2CCC2(C)C(C(=O)Cn3cnc4c(=S)nc[nH]c43)CCC12 (configuration not stated)"
meas_value = 1.90


# next compound below
**Q:** // lookup log10(TGI) | system=A498 renal | key= `CC(C)(O)c1ccc(N2CCN(c3nnc(Cc4ccccc4)c4ccccc34)CC2)nc1`
**A:** 1.63

###

system: MALME-3M melanoma; test: NCI tumour cell line growth inhibition, 48 h
# reported TGI; entries follow

**Q:** Query: TGI; subject: `O=C(O)CS(=O)(=O)C(c1ccccc1)c1ccccc1`
**A:** > 100 µM

###

tested on: U251 CNS; experiment: NCI tumour cell line growth inhibition, 48 h
# reported TGI; entries follow
Give the value, in units of µM, as a plain number.

Study these solved cases before continuing.
[[record]]
compound = "NC(=O)OCC(COc1ccc(Cl)cc1)OC(=O)c1ccccc1Cl (stereo unspecified)"
measurement_type = "TGI"
units = "µM"
meas_value = 27.6

[[record]]
compound = "O=C(CCl)c1ccc([N+](=O)[O-])o1"
measurement_type = "TGI"
units = "µM"
meas_value = 4.37

[[record]]
compound = "CCC[CH2][Sn]([CH2]CCC)([O]C(C)=O)[O]C(C)=O"
measurement_type = "TGI"
units = "µM"
meas_value = 2.09


# next compound below
**Q:** Query: TGI; subject: `Cn1c(O)c(C(=O)Nc2cccs2)c(=O)[nH]c1=S`
**A:** 48.3
